Experiment: AUC in CD1 mouse at 421 umol/kg, ip
Type: ADME, organism-based
Conditions: plasma
attribute measured: AUC (µM·h)
Report only the number, with the unit µM·h understood.

Task: Record request: AUC value, item CN(C)CCNc1n[n+]([O-])c2ccc(C(C)(C)C)cc2[n+]1[O-]
Result: 9.73

Task: Fill in the blank: the reported AUC of Cc1ccc2c(c1)[n+]([O-])c(NCCN1C(C)CCCC1C)n[n+]2[O-] (configuration not stated) is ____.
Result: 18.3

---

Experiment: Half life in CD1 mouse at 421 umol/kg, ip
Format: ADME, organism-based
Details: in vivo
attribute measured: half-life (min)
Record the value in min, omitting the unit from your answer.

Task: May I ask what half-life has been recorded for CN(C)CCNc1n[n+]([O-])c2ccc(C(C)(C)C)cc2[n+]1[O-] ?
Result: 12.5

Task: Which measured half-life value corresponds to Cc1ccc2c(c1)[n+]([O-])c(NCCN1C(C)CCCC1C)n[n+]2[O-] (configuration not stated) ?
Result: 19.1
